Data credit: patent US7109244B2

# System: SK-OV-3
# protocol: expanded in vitro screen, SK-OV-3
# Format: cell-based
# condition.label: Homo sapiens; SK-OV-3, Ovary, solid

# smi, IC50
measured = [
    ("CCCCCCCCCCCCCCC[C@@H](O)[C@H](C)N", "0.014 nM"),
]

---

# Tested on: U-937
# protocol: expanded in vitro screen, U-937
# Format: cell-based
# condition.label: Homo sapiens; U-937, Lymphoma
value.kind: IC50

# compound, target.desc, obs.value
data = [
    ("CCCCCCCCCCCCCCC[C@@H](O)[C@H](C)N [Spisulosine 285, (2S,3R)-2-Amino-3-octadecanol]", "U-937", "0.0196 nM"),
]

---

# Test system: K562
# protocol: expanded in vitro screen, K562
# Type: cell-based
# condition.label: Homo sapiens; K562, Leukemia
pIC50: −log10 of the molar value.

# molecule, pIC50
rows = [
    ("CCCCCCCCCCCCCCC[C@@H](O)[C@H](C)N [Spisulosine 285, (2S,3R)-2-Amino-3-octadecanol]", 10.80),
]

---

# Test system: FADU
# protocol: expanded in vitro screen, FADU
# Assay type: cell-based
# condition.label: Homo sapiens, Pharnynx, solid
pIC50: −log10 of the molar value.

# compound, pIC50
measured = [
    ("CCCCCCCCCCCCCCC[C@@H](O)[C@H](C)N [Spisulosine 285, (2S,3R)-2-Amino-3-octadecanol]", 11.30),
]

---

# Tested on: HT-29
# protocol: expanded in vitro screen, HT-29
# Format: cell-based
# condition.label: Homo sapiens; HT-29, Colon, solid
pIC50: −log10 of the molar value.
value.kind: pIC50

# compound, obs.value
data = [
    ("CCCCCCCCCCCCCCC[C@@H](O)[C@H](C)N [Spisulosine 285, (2S,3R)-2-Amino-3-octadecanol]", 11.59),
]

---

# Test system: CCRF-SB
# protocol: expanded in vitro screen, CCRF-SB
# Type: cell-based
# condition.label: Homo sapiens, Leukemia
pIC50: −log10 of the molar value.

# compound, target.desc, pIC50
measured = [
    ("CCCCCCCCCCCCCCC[C@@H](O)[C@H](C)N [Spisulosine 285, (2S,3R)-2-Amino-3-octadecanol]", "CCRF-SB", 8.98),
]

---

# System: SW684
# protocol: expanded in vitro screen, SW684
# Assay type: cell-based
# condition.label: Homo sapiens; SW684, Fibrosarcoma
# Procedure: An expanded in vitro screen was performed of spisulosine 285 against a series of different cell lines.

# smi, IC50
records = [
    ("CCCCCCCCCCCCCCC[C@@H](O)[C@H](C)N", "1.05 nM"),
]
